Record form. Attribute: kon. Fill in for each entry.
# target.or.test.system: T1, cynomolgus IL-1 beta (Sino Biological 90010-CNAE) (cynomolgus, UniProt P79182 117-268)
# T1 sequence (looked up): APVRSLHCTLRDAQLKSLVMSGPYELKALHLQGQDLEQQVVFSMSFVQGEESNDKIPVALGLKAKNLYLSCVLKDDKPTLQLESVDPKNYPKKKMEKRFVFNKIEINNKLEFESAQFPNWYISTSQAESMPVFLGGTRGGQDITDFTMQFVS
# assay.procedure: SPR, Fab captured via anti-Fab antibody, cynomolgus IL-1beta injected, 1:1 Langmuir fit
Your reply should be a number followed by the unit it is expressed in.

{"binder": "bispecific anti-VEGF/anti-IL-1beta Fab fragment 1HVL12.85 (Fab, V domains shown) VH: DEQLVESGGGLVKPGGSLRLSCAAEGMVFKWNDMSWVRQAPGKGLEWVGSISKKGDHKYLNTKFIGRFTISRDNEKDTLYLQMNSLRAEDTAVYYCAKDVGFFDIWGQGTLVTVSS VL: AIYMHQEPSSLSASVGDRVTITCHGSYWLSSLVAWYQQKPGKAPKLLIYDAKYKHLGVPSRFSGSKEDQEFTLTISSLQPEDFATYYCQQYRYHPYTFGHGTKVEIKR", "kon": "3.34e+06 M⁻¹ s⁻¹"}

# batch size: 3; output kon per entry
1. bispecific anti-VEGF/anti-IL-1beta Fab fragment RO7200394 (Fab, V domains shown, same variable domains as 1HVL12.85; also called R07200394) VH: DEQLVESGGGLVKPGGSLRLSCAAEGMVFKWNDMSWVRQAPGKGLEWVGSISKKGDHKYLNTKFIGRFTISRDNEKDTLYLQMNSLRAEDTAVYYCAKDVGFFDIWGQGTLVTVSS VL: AIYMHQEPSSLSASVGDRVTITCHGSYWLSSLVAWYQQKPGKAPKLLIYDAKYKHLGVPSRFSGSKEDQEFTLTISSLQPEDFATYYCQQYRYHPYTFGHGTKVEIKR
2. bispecific anti-VEGF/anti-IL-1beta Fab fragment 1HVL5.15 (Fab, V domains shown) VH: DETLVESGGGLVKPGGSLRLSCAAEGMVFKWNDMSWVRQAPGKGLEWVGSISKKGDHKYLNTKFIGRFTISRDNEKDTLYLQMNSLRAEDTAVYYCAKDVGFFDIWGQGTLVTVSS VL: AIYMHQEPSSLSASVGDRVTITCHGSYWLSSLMAWYQQKPGKAPKLLIYDAKYKHLGVPSRFSGSGSHEDYTLTISSLQPEDFATYYCQQYRYHPYTFGHGTKVEIKR
3. bispecific anti-VEGF/anti-IL-1beta Fab fragment 1HVL2.3 (Fab, V domains shown, First expressed in E. coli TG1, later in HEK293) VH: EQLVESGGGLVKPGGSLRLSCAASGMVFSWNAMSWVRQAPGKGLEWVGSISPKGDHKYLNTKFIGRFTISRDNSKNTLYLQMNSLRAEDTAVYYCAKDIGFFDVWGQGTLVTVSS VL: AIYMHQEPSSLSASVGDRVTITCHGSYWLSNYLAWYQQKPGKAPKLLIYDASYRIIGVPSRFSGSGSHEDYTLTISSLQPEDFATYYCQQYRYHPYTFGHGTKVEIKR

Output:
1. 2.97e+06 M⁻¹ s⁻¹
2. 2.6e+06 M⁻¹ s⁻¹
3. 3.14e+06 M⁻¹ s⁻¹

Data provenance is patent US20200199214A1.
